The molecules listed here are annotated with their IC50.
Target: BRD4 BD2 (Homo sapiens, UniProt O60885, Y97A)
Construct: BRD4 (1-477) (Y97A) and (Y390A); made in house; host or cells: E. coli (pET15b vector)
Assay: BRD4 BD2 TR-FRET competition assay
Format: binding
Details: single mutant tandem BRD4, read-out: pIC50 in the BRD4 BD2 assay (converted)
Experimental: Bromodomain binding was assessed utilising a time resolved fluorescent resonance energy transfer (TR-FRET) competition assay. […] The competition of the compounds of formula (I) with Reference Compound X for binding to the BET family (BRD2, BRD3, BRD4 and BRDT) was assessed using protein truncates spanning both bromodomain 1 (BD1) and bromodomain 2 (BD2). […]

get_value(item= CNC(=O)c1cc(C(=O)Nc2cnn(C)c2)cn(Cc2ccccc2)c1=O [Example 53] , readout=IC50) returns ≤ 100 nM

get_value(item= CNC(=O)c1cc(C(=O)NCCC#N)cn(Cc2ccccc2)c1=O [Example 37] , readout=IC50) returns 100 to 1000 nM

---

The compounds listed here are annotated with their IC50.
target: BRD4 BD2 (Homo sapiens, UniProt O60885, Y97A); construct: BRD4 (1-477) (Y97A) and (Y390A); made in house; host or cells: E. coli (pET15b vector); assay: BRD4 BD2 TR-FRET competition assay; format: binding; settings: single mutant tandem BRD4, read-out: pIC50 in the BRD4 BD2 assay (converted)

Please review the following examples before continuing.
                                   compound  property    measured_result
0  CNC(=O)c1cc(C(=O)NCC(C)O)cn(Cc2ccccc2)c1=O (stereo not shown)      IC50  1000 to 100000 nM
1  CNC(=O)c1cc(C(=O)NCCc2cn[nH]c2)cn([C@H](C)c2ccccc2)c1=O      IC50           ≤ 100 nM
2  CCCCNC(=O)c1cc(C(=O)NC)c(=O)n(Cc2ccccc2)c1      IC50     100 to 1000 nM
3  CNC(=O)c1cc(C(=O)Nc2ccn(C)n2)cn(Cc2ccccc2)c1=O      IC50     100 to 1000 nM
4  CNC(=O)c1cc(C(=O)NCCc2c[nH]cn2)cn(Cc2cccc(C)c2F)c1=O      IC50     100 to 1000 nM

get_value(item= `CNC(=O)c1cc(C(=O)NCCCNC(=O)OC(C)(C)C)cn(Cc2ccccc2)c1=O` , readout=IC50) returns 100 to 1000 nM

get_value(item= `CNC(=O)CCCNC(=O)c1cc(C(=O)NC)c(=O)n(Cc2ccccc2)c1` , readout=IC50) returns 100 to 1000 nM

get_value(item= `CNC(=O)c1cc(C(=O)NCCCS(C)(=O)=O)cn(Cc2ccccc2)c1=O` , readout=IC50) returns 100 to 1000 nM

get_value(item= CNC(=O)c1cc(C(=O)NCC(C)OC)cn(Cc2ccccc2)c1=O (stereo not shown) , readout=IC50) returns 1000 to 100000 nM

get_value(item= `CNC(=O)c1cc(C(=O)NCCCN(C)C)cn(Cc2ccccc2)c1=O` , readout=IC50) returns 100 to 1000 nM

---

Molecular target: BRD4 BD2 (Homo sapiens, UniProt O60885, Y97A)
Construct: BRD4 (1-477) (Y97A) and (Y390A); made in house; host or cells: E. coli (pET15b vector)
Experiment: BRD4 BD2 TR-FRET competition assay
Assay type: binding
Details: average of N recorded values, read-out: BRD4 BD2 IC50 (average value) (converted)
Description: Bromodomain binding was assessed utilising a time resolved fluorescent resonance energy transfer (TR-FRET) competition assay. […] The competition of the compounds of formula (I) with Reference Compound X for binding to the BET family (BRD2, BRD3, BRD4 and BRDT) was assessed using protein truncates spanning both bromodomain 1 (BD1) and bromodomain 2 (BD2). […]
PROPERTY: IC50 (nM)

Please review the following examples before continuing.
                                   compound  measured_result
0  CCCNC(=O)c1cc(C(=O)NC)c(=O)n(Cc2ccccc2)c1 [Example 2]              126
1  CNC(=O)c1cc(C(=O)NCCc2cn[nH]c2)cn(Cc2cccc(C)c2)c1=O [Example 13]              100
2  CNC(=O)c1cc(C(=O)NCCCc2ncc[nH]2)cn(Cc2ccccc2)c1=O [Example 11]             63.1

(1) CCNC(=O)c1cc(C(=O)NC)c(=O)n(Cc2cccc3[nH]ccc23)c1 [Example 25]
(2) CCNC(=O)c1cc(C(=O)NC)c(=O)n(Cc2cccc(OCCO)c2)c1 [Example 20]
[Q] Identify the entry with the smaller IC50: 1 or 2 . Field: selected label. Fill in the label of the entry you choose.
[A] 1

Every entry's value here was drawn from patent US10471050B2.
